Test system: MS2 coat protein
Assay: apparent Kd, MS2 coat protein; higher = weaker binding; RNA-MaP array; FMN 200 µM where present
Details: ligand present: flavin mononucleotide; designed as: ON switch for flavin mononucleotide
Quick reference for apparent Kd among some sequences
Respond with the bare value in nM.

Examples from the recorded data:
Name the reported apparent Kd value associated with the sequence GGGAUAAGGCAGAAGGACAUGAGGAUCACCCAUGUAGGAUAUGCCUACAUCCGCAUCUUAGGUCUCGCUCUGUCGCGACCCUCU
5.29

Entry AUUACAAUUUUAUACAUGAGGAUCACCCAUGUUAUAAGUCAUGAGGAUAUGGUAUUGUAGUUAUUCCAGAAGGCAUUUAGCUAA has what apparent Kd?
7.64

Any idea what its apparent Kd is? The sequence is GUGUGAUUAAGAGGAUAUAUACAACAUGAGGAUCACCCAUGUACCCGUGUAGUAGAAGGUUUGUUUUUAUAUAAUAUUAUAAUU
24.8

GET /values?readout=apparent Kd&item= UGGUACAUCGGAGGAUAUCAUGUAGAGACAUGAGGAUCACCCAUGUCGAUGGAGACAUCGGAGAUUGAGAAGGCCGAUGUACCU
22.2

Give the measured apparent Kd of CCGGAAACGGGUAGCUCACAUGAGGAUCACCCAUGUGAAACACAGGAUAUGGAUCCUAAUUGGAUCCAGAAGGGUGUGAGCUAC .
20.3

***
Tell me the measured apparent Kd of UGUGUUAUCGGAGGAUAUCGAUAUCAAACAUGAGGAUCACCCAUGUUGAGGAUCACACAUGUCCACGAGAAGGCCGACGUAGUG , please.
7.23

Quick one: apparent Kd for UAUCUAUUUAUGGGAUUAGAAUAUGAGGAUAUCAUUUAUUUAUACAUGAGGAUCACCCAUGUUACUGAGAAGGCAUAUUUAAUA ?
7.47

====

System: MS2 coat protein
Test: apparent Kd, MS2 coat protein; higher = weaker binding; RNA-MaP array; FMN 200 µM where present
Conditions: ligand present: flavin mononucleotide; designed as: ON switch for flavin mononucleotide
Each record here notes measured apparent Kd.
Please make sure the unit comes right after the number.

The following sequences have reported results that may help.
What is its apparent Kd for MS2 coat protein? Entry: GUAGCAUUAAUAGGAUAUUCAUACCGGAAACGGACAUGAGGAUCACCCAUGUGGCGAAAGCCUUGGGAGAAGGUAAUAUGCUAC
240 nM

Observed apparent Kd on MS2 coat protein for AAGUGUGGAUGAGGAUAUCAGCUGUAACUGACGUCGACAUGAGGAUCACCCAUGUUGCUAAAGGGUGAGAAGGCAUUUGCGCAA , please.
53.8 nM

Find apparent Kd (MS2 coat protein) for the entry GCGCCAUUGCAAGGAUAUCCUACAGAGGGUGCAGGAGAAGGUGCAUUGGUGAGACUAUAGGACAUGAGGAUCACCCAUGUACCU
17.9 nM

What reported apparent Kd corresponds to UUUACUUUGUAGAAGGGUGACAUGAGGAUCACCCAUGUGCGUCGCCUGAAAGACCAGGGUACGCCACAGGAUAUACAAAGUAAG on MS2 coat protein?
40.4 nM

What apparent Kd appears in the records for this sequence with MS2 coat protein? GUUUGUUAUUAGAAGGUGCCGGCGAGAGCCGCAACAUGAGGAUCACCCAUGUGUCGGUGACGACGCAAGGAUAUGGUGGUGGAU
140 nM

Checklist item: apparent Kd tested on MS2 coat protein, entry GUGAACAUGAGGAUCACCCAUGUAGCUCACUGCCAGUGGCUACAGGAUAUAGCACUCCGAAGGUGCUAGAAGGGUGGCCUAGAA , value?
22.1 nM

---
Request - read-out apparent Kd | tested on MS2 coat protein | sequence GGGUACAUCGGAGGAUAUCAUGUAAAUACAUGAGGAUCACCCAUGUCGAUGGACACAUCGGAGAUUGAGAAGGCCGAUGUACCG
5.27 nM

# returns recorded apparent Kd (system: MS2 coat protein) for AUAAAACAUGAGGAUCACCCAUGUCAACAAAGUCGAGGAUAUGGGCAAAUAAAAUAAGAACCAGAAGGCGAAUAAU
36.6 nM

Recall the recorded apparent Kd for CGCUGUCAUGCAGGAUAUGCAUUGGAUUGCAAUGCAGAAGGGCGAUUACAUGAGGAUCACCCAUGUGUAGACAGUGAAGAAGAG with MS2 coat protein and state it.
12.6 nM
